Cited source for all entries: PubChem BioAssay AID488857

Exercise: state measured inhibition for each of the compounds provided.
Assay: ASC/caspase-1 reporter retest in S. cerevisiae at one dose, specificity check for NALP1 project (AID 488857)
Details: S. cerevisiae ASC/Caspase-1, beta-galactosidase luminescence, 24 h; at 10 µM; active compounds read high
Among all 1,400 compounds or so, about 560 (40%) were called active. The set was probably picked from earlier hits. The list shows a part of the results.

**Q:** Return reported inhibition; argument: CC1(C)C[C@H]2C=C(C=O)[C@]3(C=O)C[C@]3(C)[C@H]2C1
**A:** 81.3% (active)

**Q:** For the compound O=C1/C(=C/c2cc3c(cc2Cl)OCO3)N2CCC1CC2 , what inhibition is on record?
**A:** 55% (active)

**Q:** Would you mind telling me what inhibition value was observed for Cc1ccc(S(=O)(=O)NC(CC(=O)N2CCC3(CC2)OCCO3)c2ccco2)cc1 (centres undefined) ?
**A:** 31.6% (inactive)

**Q:** Field request: inhibition | item: CN1CCN(c2ccc(N)c(N3CCN(C)CC3)c2)CC1
**A:** 31.1% (inactive)
